test system: A2780cis; assay: potency toward A2780cis; format: cell-based, human; settings: read-out: drug IC50 A2780cis; cisplatin resistant
Parameter: pIC50
One number for each entry, as −log10 of the molar value.

INPUT: Value wanted: pIC50 (A2780cis) of entry N.N.[Cl][Pt][Cl] [cisplatin]
OUTPUT: 5.30
